Experiment: Resistance to Poly (ADP-Ribose) Polymerase inhibitor: Gene Identification via Genome-wide siRNA Screen
Conditions: mouse BRCA2 R2336H ES cells, olaparib, CellTiter-Glo viability; stronger effect = higher value
About 210 (0.4%) of roughly 52,000 sequences were called active. Many of the other results were omitted from the sample, so actives are more common in it than they were.
MEASURED_ENDPOINT: z-score

>  <SEQUENCE_ENTRY>
GGCUGAACUCAAAAAGACGTT against Hand1

>  <RECORDED_NUMBER>
2.07

$$$$
>  <SEQUENCE_ENTRY>
GCUUGACCCUACACUACAGTT against Olfr1121

>  <RECORDED_NUMBER>
1.25

$$$$
>  <SEQUENCE_ENTRY>
CGGCCUAUCUCUUGGUUUATT against Usp18

>  <RECORDED_NUMBER>
2.69

$$$$
>  <SEQUENCE_ENTRY>
CCUUGAUGACGAAAACAUATT against Plekha2

>  <RECORDED_NUMBER>
0.756

$$$$
>  <SEQUENCE_ENTRY>
GGAAAGCUACUGUCAGAGUTT against Olfr473

>  <RECORDED_NUMBER>
0.453

$$$$
>  <SEQUENCE_ENTRY>
CCAUGUCCAAUGAGGACUUTT against Htr1b

>  <RECORDED_NUMBER>
1.74

$$$$
